- Measurement notes: Pharmacokinetics in CD1 male mice (plasma, HPLC-MS)
- Type: in vivo
- Experimental context: male, CD1, mouse, plasma, po, 10 mg/kg, PO 10 mg/kg, Mean of 4 mice

- Compound: "CCCc1cc(O)c(C2CC(C)CCC2C(C)C)c(O)c1 (racemic) [CCL-106, hexahydrocannabidivarin]"
  Unit symbol: "%"
  bioavailability: 16.5

Where do these numbers come from? They come from patent US20260097049A1.
